MEASUREMENT TARGET: T1, human neuropeptide Y2 receptor (human, UniProt P49146 1-381)
T1 sequence (looked up): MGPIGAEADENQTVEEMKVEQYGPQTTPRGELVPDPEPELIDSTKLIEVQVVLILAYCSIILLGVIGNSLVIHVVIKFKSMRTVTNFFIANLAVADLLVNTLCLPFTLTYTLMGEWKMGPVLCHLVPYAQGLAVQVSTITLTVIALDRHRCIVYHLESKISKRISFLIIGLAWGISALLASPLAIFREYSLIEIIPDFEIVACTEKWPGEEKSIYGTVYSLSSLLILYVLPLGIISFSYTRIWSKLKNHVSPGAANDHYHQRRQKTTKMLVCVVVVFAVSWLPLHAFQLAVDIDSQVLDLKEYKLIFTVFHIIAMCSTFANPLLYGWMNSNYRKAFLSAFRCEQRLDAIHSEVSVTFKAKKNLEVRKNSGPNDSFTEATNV
EXPERIMENTAL PROTOCOL: cell-based or functional assay
*1 amine or outer side, *2 acyl side, *3 side chain or, on linkers, in order; H or OH if unused. Where no end group is shown, it is not given here. Side-chain parts run from the residue outwards. [ ]: non-standard residue; d: D form. The star is where a group is joined. C20 diacid = O=C(O)CCCCCCCCCCCCCCCCCCC(=O)*; C18 diacid = O=C(O)CCCCCCCCCCCCCCCCC(=O)*; γGlu = O=C(O)[C@H](CCC(=O)[*:2])N[*:1]; εLys = N[C@@H](CCCCN[*:1])C(=O)[*:2]; NMeQ = CN[C@@H](CCC(N)=O)C(=O)O; Aib = CC(C)(N)C(=O)O
Some binders, each annotated with its measured EC50, CreLuc reporter, 0.5% hP.
Could you kindly put the unit after your number?

>>> recorded_value("YXEGTFTSDYSIXLDKQAQXAFIRHLINKXTRQRY (Aib at 2, 20, 30; aMeL at 13; Lys29 epsilon-amino acylated with C20DA-gGlu-gGlu-gGlu-gGlu-gGlu-gGlu-eLys; C-terminal amide) [Compound 22]")
"8.8 nM"
>>> recorded_value("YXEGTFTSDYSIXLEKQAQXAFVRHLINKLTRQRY (Aib at 2, 13, 20; Lys29 epsilon-amino acylated with C18DA-gGlu-gGlu-gGlu-gGlu-gGlu-AHX; C-terminal amide) [Compound 69]")
"7 nM"
>>> recorded_value("Y[Aib]EGTFTSDYSI[Aib]LEKQAQ[Aib]AFVRHLINK([γGlu-γGlu-γGlu-γGlu-γGlu-γGlu-C18 diacid])[Aib]TR[NMeQ]RY-NH2 [Compound 2]")
"89.9 nM"
>>> recorded_value("YXEGTFTSDLSIXLEKQAQXAFIRHLINKXTRQRY (Aib at 2, 13, 20, 30; Lys29 epsilon-amino acylated with C20DA-gGlu-gGlu-gGlu-gGlu-gGlu-gGlu-eLys; C-terminal amide) [Compound 21]")
"6.5 nM"

For this binder ( Y[Aib]EGTFTSDYSI[Aib]LDQQAQ[Aib]AFVRHLINK([εLys-γGlu-γGlu-γGlu-γGlu-γGlu-C18 diacid])[Aib]TRQRY-NH2 [Compound 70] ), measured EC50, CreLuc reporter, 0.5% hP is 12.8 nM

For this binder ( Y[Aib]EGTFTSDYSI[Aib]LEKQAQ[Aib]EFVRHLINK([εLys-γGlu-γGlu-γGlu-γGlu-γGlu-γGlu-γGlu-C18 diacid])[Aib]TRQRY-NH2 [Compound 30] ), measured EC50, CreLuc reporter, 0.5% hP is 33.9 nM

For this binder ( YXEGTFTSDYSIXLEKQAQXEFVRHLINKLTRQRY (Aib at 2, 13, 20; Lys29 epsilon-amino acylated with C20DA-gGlu-gGlu-gGlu-gGlu-gGlu-gGlu-eLys; C-terminal amide) [Compound 39] ), measured EC50, CreLuc reporter, 0.5% hP is 10.8 nM

For this binder ( YXEGTFTSDYSIXLEKQEQXAFVRHLINKXTRQRY (Aib at 2, 13, 20, 30; Lys29 epsilon-amino acylated with C18DA-gGlu-gGlu-gGlu-gGlu-gGlu-gGlu-eLys; C-terminal amide) [Compound 36] ), measured EC50, CreLuc reporter, 0.5% hP is 30.1 nM

For this binder ( Y[Aib]EGTFTSDYSI[Aib]LEKQAQ[Aib]AFVRHLINK([εLys-γGlu-γGlu-γGlu-γGlu-γGlu-C20 diacid])[Aib]TRQRY-NH2 [Compound 59] ), measured EC50, CreLuc reporter, 0.5% hP is 5.7 nM

For this binder ( YXEGTFTSDYSIXLDEQAQXAFVRHLINKXTRQRY (Aib at 2, 13, 20, 30; Lys29 epsilon-amino acylated with C18DA-gGlu-gGlu-gGlu-gGlu-gGlu-gGlu-eLys; C-terminal amide) [Compound 40] ), measured EC50, CreLuc reporter, 0.5% hP is 16.2 nM

For this binder ( YXEGTFTSDYSIXLEKQAQXAFVRHLINKITRQRY (Aib at 2, 13, 20; Lys29 epsilon-amino acylated with C18DA-gGlu-gGlu-gGlu-gGlu-gGlu; C-terminal amide) [Compound 41] ), measured EC50, CreLuc reporter, 0.5% hP is 49.2 nM
